Tested on: Leishmania amazonensis
Experiment: Antileishmanial activity against promastigotes of Leishmania amazonensis IFLA/BR/67/PH8 assessed as induction of necrosis using Annexin-V-FITC/PI staining at IC50 after 4 hrs by flow cytometry (reference value: 2.6%)
Type: functional
RECORDED METRIC: Activity (%)
Quick note: give the figure in %, leave out the unit.

Consider the reported Activity for these molecules:
[[record]]
smiles_notation = "N#Cc1c(/N=C/c2cc3cc(Br)ccc3[nH]2)sc2c1CCCC2"
units_label = "%"
numeric_readout = 3.5

[[record]]
smiles_notation = "C[C@@H]1[C@H](O)[C@@H](C)/C=C/C=C/C=C/C=C/C=C/C=C/C=C/[C@H](O[C@@H]2O[C@H](C)[C@@H](O)[C@H](N)[C@@H]2O)C[C@@H]2O[C@](O)(C[C@@H](O)C[C@@H](O)[C@H](O)CC[C@@H](O)C[C@@H](O)CC(=O)O[C@H]1C)C[C@H](O)[C@H]2C(=O)O"
units_label = "%"
numeric_readout = 2.8

[[record]]
smiles_notation = "N#Cc1c(/N=C/c2cc3cc(Br)ccc3[nH]2)sc2c1CCCCC2"
units_label = "%"
numeric_readout = 6.1


Read the next record carefully.
Field Activity (entry N#Cc1c(/N=C/c2cc3ccccc3[nH]2)sc2c1CCCCC2 ) reads 12.1

----------
System: Leishmania amazonensis
Test: Antileishmanial activity against promastigotes of Leishmania amazonensis IFLA/BR/67/PH8 assessed as induction of early apoptosis using Annexin-V staining at 2 times IC50 after 4 hrs by flow cytometry (reference value: 8.3%)
Type: functional
RECORDED METRIC: Activity
State the value, then name its unit.

Consider the reported Activity for these molecules:
[[record]]
molecule = "N#Cc1c(/N=C/c2cc3cc(Br)ccc3[nH]2)sc2c1CCCCC2"
result = "5.6%"

[[record]]
molecule = "N#Cc1c(/N=C/c2cc3ccccc3[nH]2)sc2c1CCCCC2"
result = "3.5%"

[[record]]
molecule = "C[C@@H]1[C@H](O)[C@@H](C)/C=C/C=C/C=C/C=C/C=C/C=C/C=C/[C@H](O[C@@H]2O[C@H](C)[C@@H](O)[C@H](N)[C@@H]2O)C[C@@H]2O[C@](O)(C[C@@H](O)C[C@@H](O)[C@H](O)CC[C@@H](O)C[C@@H](O)CC(=O)O[C@H]1C)C[C@H](O)[C@H]2C(=O)O [AMPHOTERICIN B]"
result = "10.4%"


Field Activity (entry N#Cc1c(/N=C/c2cc3cc(Br)ccc3[nH]2)sc2c1CCCC2 ) reads 5.2%

----------
Assay: Ratio of compound CC50 to meglumine antimoniate CC50 for Swiss mouse peritoneal macrophages
Format: ADME, cell-based, Peritoneal macrophage cell
RECORDED METRIC: selectivity ratio
Please state the value as a number alone, without comment.

Field selectivity ratio (entry N#Cc1c(/N=C/c2cc3cc(Br)ccc3[nH]2)sc2c1CCCC2 ) reads 840

----------
Catalogue of Activity readings, one per entry.
Test system: Leishmania amazonensis
Assay: Antileishmanial activity against promastigotes of Leishmania amazonensis IFLA/BR/67/PH8 assessed as induction of necrosis using Annexin-V-FITC/PI staining at 2 times IC50 after 4 hrs by flow cytometry (reference value: 2.6%)
Assay type: functional
Quick note: give the figure in %, leave out the unit.

[[record]]
smiles_notation = "N#Cc1c(/N=C/c2cc3ccccc3[nH]2)sc2c1CCCCC2"
target_or_system = "Leishmania amazonensis"
numeric_readout = 31.6

[[record]]
smiles_notation = "C[C@@H]1[C@H](O)[C@@H](C)/C=C/C=C/C=C/C=C/C=C/C=C/C=C/[C@H](O[C@@H]2O[C@H](C)[C@@H](O)[C@H](N)[C@@H]2O)C[C@@H]2O[C@](O)(C[C@@H](O)C[C@@H](O)[C@H](O)CC[C@@H](O)C[C@@H](O)CC(=O)O[C@H]1C)C[C@H](O)[C@H]2C(=O)O"
target_or_system = "Leishmania amazonensis"
numeric_readout = 5.2

[[record]]
smiles_notation = "N#Cc1c(/N=C/c2cc3cc(Br)ccc3[nH]2)sc2c1CCCCC2"
target_or_system = "Leishmania amazonensis"
numeric_readout = 22.7


Read the next record carefully.
Field Activity (entry N#Cc1c(/N=C/c2cc3cc(Br)ccc3[nH]2)sc2c1CCCC2 ) reads 21.7

----------
System: Leishmania amazonensis
Experiment: Antileishmanial activity against promastigotes of Leishmania amazonensis IFLA/BR/67/PH8 assessed as induction of necrosis using Annexin-V-FITC/PI staining at 4 times IC50 after 4 hrs by flow cytometry (reference value: 2.6%)
Assay type: functional
RECORDED METRIC: Activity (%)
Quick note: give the figure in %, leave out the unit.

[[record]]
compound = "N#Cc1c(/N=C/c2cc3ccccc3[nH]2)sc2c1CCCCC2"
units_label = "%"
numeric_readout = 54.9


Field Activity (entry C[C@@H]1[C@H](O)[C@@H](C)/C=C/C=C/C=C/C=C/C=C/C=C/C=C/[C@H](O[C@@H]2O[C@H](C)[C@@H](O)[C@H](N)[C@@H]2O)C[C@@H]2O[C@](O)(C[C@@H](O)C[C@@H](O)[C@H](O)CC[C@@H](O)C[C@@H](O)CC(=O)O[C@H]1C)C[C@H](O)[C@H]2C(=O)O [AMPHOTERICIN B] ) reads 8.6

Field Activity (entry N#Cc1c(/N=C/c2cc3cc(Br)ccc3[nH]2)sc2c1CCCC2 ) reads 51.9

Field Activity (entry N#Cc1c(/N=C/c2cc3cc(Br)ccc3[nH]2)sc2c1CCCCC2 ) reads 53.2

----------
Catalogue of HC50 at 1 h readings, one per entry.
Experiment: Toxicity in human RBC assessed as induction of hemolytic activity after 1 hr by spectrometer analysis
Type: cell-based, Erythrocyte
Conditions: red blood cells (RBC)
Quick note: give the figure in µM, leave out the unit.

Consider the reported HC50 at 1 h for these compounds:
[[record]]
compound = "N#Cc1c(/N=C/c2ccc3ncccc3c2)sc2c1CCC2"
numeric_readout = 625

[[record]]
compound = "N#Cc1c(/N=C/c2cc3ccccc3[nH]2)sc2c1CCCCC2"
numeric_readout = 721

[[record]]
compound = "N#Cc1c(/N=C/c2ccc3ncccc3c2)sc2c1CCCCC2"
numeric_readout = 716

[[record]]
compound = "C[C@@H]1[C@H](O)[C@@H](C)/C=C/C=C/C=C/C=C/C=C/C=C/C=C/[C@H](O[C@@H]2O[C@H](C)[C@@H](O)[C@H](N)[C@@H]2O)C[C@@H]2O[C@](O)(C[C@@H](O)C[C@@H](O)[C@H](O)CC[C@@H](O)C[C@@H](O)CC(=O)O[C@H]1C)C[C@H](O)[C@H]2C(=O)O [AMPHOTERICIN B]"
numeric_readout = 11.6


Read the next record carefully.
Field HC50 at 1 h (entry N#Cc1c(/N=C/c2ccccc2)sc2c1CCCC2 ) reads 682

----------
Assay: Ratio of compound HC50 to meglumine antimoniate HC50 for human RBC
Format: ADME, cell-based
Conditions: erythrocyte
RECORDED METRIC: Ratio

Field Ratio (entry N#Cc1c(/N=C/c2cc3cc(Br)ccc3[nH]2)sc2c1CCCC2 ) reads > 14800

----------
Catalogue of Selectivity Index readings, one per entry.
Experiment: Selectivity index, ratio of HC50 for human RBC to IC50 for promastigotes of Leishmania amazonensis IFLA/BR/67/PH8

Consider the reported Selectivity Index for these compounds:
[[record]]
smiles_notation = "N#Cc1c(/N=C/c2ccc([N+](=O)[O-])cc2)sc2c1CCCC2"
recorded_metric = "Selectivity Index"
result = "> 4.27"

[[record]]
smiles_notation = "COc1ccc(Br)c(/C=N/c2sc3c(c2C#N)CCCC3)c1"
recorded_metric = "Selectivity Index"
result = "> 9.1"


Field Selectivity Index (entry N#Cc1c(/N=C/c2cc3cc(Br)ccc3[nH]2)sc2c1CCCCC2 ) reads > 219

Field Selectivity Index (entry N#Cc1c(/N=C/c2cccs2)sc2c1CCC2 ) reads > 5.73

Field Selectivity Index (entry N#Cc1c(/N=C/c2cc3cc(Br)ccc3[nH]2)sc2c1CCCC2 ) reads > 237

Field Selectivity Index (entry N#Cc1c(/N=C/c2cccs2)sc2c1CCCCC2 ) reads > 4.22
